Molecular target: human oxytocin receptor (Homo sapiens, UniProt P30559)
Construct: host or cells: CHO cells, stably transfected (pcDNA3.1 vector)
Test: Oxytocin binding in CHO cell membranes expressing human oxytocin receptors ([3H]oxytocin radioligand binding)
Conditions: 100 nM, read-out: OT % inhibition @ 100 nM
inhibition at 0.1 µM values for the compounds below.
REPORTED_PROPERTY: inhibition at 0.1 µM (%)

>>> df
                                   compound  value_measured
0  Cc1cc(C(=O)N2Cc3ccc(C(=O)N4CCN(CCCN(C)C)CC4)n3Cc3ccccc32)ccc1C1=CCCc2ccccc21              91
1  Cc1cc(C(=O)N2Cc3ccc(C(=O)N4CCN(CCCN(C)C)CC4)n3Cc3ccccc32)ccc1C1=CCCCC1              94
2  CC1=C(c2ccc(C(=O)N3Cc4ccc(C(=O)N5CCN(C)CC5)n4Cc4ccccc43)cc2C)CCCC1O (centres unmarked)              91
3  CC1=C(c2ccc(C(=O)N3Cc4ccc(C(=O)N5CCN(C)CC5)n4Cc4ccccc43)cc2C)CCC[C@H]1O              86
4  COc1cc(C2=CCCCC2)c(Cl)cc1C(=O)N1Cc2ccc(C(=O)N(C)CCCN(C)C)n2Cc2ccccc21             100

---

Target: human vasopressin V2 receptor subtype (Homo sapiens)
Construct: host or cells: CHO cells, stably transfected (pZeoSV vector)
Sequence (P30518 whole entry): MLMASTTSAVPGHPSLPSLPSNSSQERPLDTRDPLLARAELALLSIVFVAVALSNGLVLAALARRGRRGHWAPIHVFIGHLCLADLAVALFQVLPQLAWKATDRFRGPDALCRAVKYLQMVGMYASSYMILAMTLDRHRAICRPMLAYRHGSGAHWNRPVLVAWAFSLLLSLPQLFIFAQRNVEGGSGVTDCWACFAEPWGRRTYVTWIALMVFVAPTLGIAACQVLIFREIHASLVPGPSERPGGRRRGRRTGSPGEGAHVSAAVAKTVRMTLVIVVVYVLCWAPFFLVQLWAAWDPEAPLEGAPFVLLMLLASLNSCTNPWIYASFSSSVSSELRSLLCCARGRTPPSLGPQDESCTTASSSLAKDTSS
Assay: Vasopressin binding in CHO cell membranes expressing human vasopressin V2 subtype receptors ([3H]arginine vasopressin radioligand binding)
Conditions: 100 nM
REPORTED_PROPERTY: inhibition at 0.1 µM

>>> df
                                   molecule                             target_entity     reported_property  value_measured
0  Cc1cc(C(=O)N2Cc3ccc(C(=O)N4CCN(CCCN(C)C)CC4)n3Cc3ccccc32)ccc1C1=CCCc2ccccc21  human vasopressin V2 receptor subtype (Homo sapiens)  inhibition at 0.1 µM             30%
1  Cc1cc(C(=O)N2Cc3ccc(C(=O)N4CCN(CCCN(C)C)CC4)n3Cc3ccccc32)ccc1C1=CCCCC1  human vasopressin V2 receptor subtype (Homo sapiens)  inhibition at 0.1 µM             19%
2  CC1=C(c2ccc(C(=O)N3Cc4ccc(C(=O)N5CCN(C)CC5)n4Cc4ccccc43)cc2C)CCCC1O (stereo not shown)  human vasopressin V2 receptor subtype (Homo sapiens)  inhibition at 0.1 µM             -8%
3  Cc1cc(C(=O)N2Cc3ccc(C(=O)N4CCN(C)CC4)n3Cc3ccccc32)ccc1C1=CCCc2ccccc21  human vasopressin V2 receptor subtype (Homo sapiens)  inhibition at 0.1 µM             17%
4  Cc1cc(C(=O)N2Cc3ccc(C(=O)N4CCN(C)CC4)n3Cc3ccccc32)ccc1C1=CCCCC1  human vasopressin V2 receptor subtype (Homo sapiens)  inhibition at 0.1 µM             11%
5  COc1cc(C2=CCCCC2)c(Cl)cc1C(=O)N1Cc2ccc(C(=O)N(C)CCCN(C)C)n2Cc2ccccc21  human vasopressin V2 receptor subtype (Homo sapiens)  inhibition at 0.1 µM              4%
6  CC1=C(c2ccc(C(=O)N3Cc4ccc(C(=O)N5CCN(C)CC5)n4Cc4ccccc43)cc2C)CCC[C@H]1O  human vasopressin V2 receptor subtype (Homo sapiens)  inhibition at 0.1 µM             14%

---

Biological target: human oxytocin receptor (Homo sapiens)
Construct: host or cells: CHO cells, stably transfected (pcDNA3.1 vector)
Sequence (P30559 1-389): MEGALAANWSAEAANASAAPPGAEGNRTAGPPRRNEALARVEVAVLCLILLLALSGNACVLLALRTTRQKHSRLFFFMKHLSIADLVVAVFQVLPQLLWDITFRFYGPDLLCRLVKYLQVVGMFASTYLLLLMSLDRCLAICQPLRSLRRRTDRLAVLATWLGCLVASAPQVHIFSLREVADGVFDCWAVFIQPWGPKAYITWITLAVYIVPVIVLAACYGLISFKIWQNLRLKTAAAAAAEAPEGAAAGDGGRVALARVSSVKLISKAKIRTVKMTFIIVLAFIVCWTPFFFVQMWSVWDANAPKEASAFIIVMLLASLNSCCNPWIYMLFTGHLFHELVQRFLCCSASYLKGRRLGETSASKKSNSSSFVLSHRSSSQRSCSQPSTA
Test: Oxytocin binding in CHO cell membranes expressing human oxytocin receptors ([3H]oxytocin radioligand binding)
Settings: 100 nM
OT % inhibition @ 100 nM values for the molecules below.
REPORTED_PROPERTY: OT % inhibition @ 100 nM (%)

                                   molecule                           target_entity  value_measured
0  Cc1cc(C(=O)N2Cc3ccc(C(=O)N4CCCN(C)CC4)n3Cc3ccccc32)ccc1C1=CCCCC1  human oxytocin receptor (Homo sapiens)              90
1  Cc1cc(C(=O)N2Cc3ccc(C(=O)N4CCN(C(C)C)CC4)n3Cc3ccccc32)ccc1C1=CCCCC1  human oxytocin receptor (Homo sapiens)              71
2  Cc1cc(C(=O)N2Cc3ccc(C(=O)N4CCN(CCN5CCOCC5)CC4)n3Cc3ccccc32)ccc1C1=CCCCC1  human oxytocin receptor (Homo sapiens)              79
3  Cc1cc(C(=O)N2Cc3ccc(C(=O)N4CCN(CCN(C)C)CC4)n3Cc3ccccc32)ccc1C1=CCCCC1  human oxytocin receptor (Homo sapiens)              92
4  Cc1cc(C(=O)N2Cc3ccc(C(=O)NCCN4CCCCC4)n3Cc3ccccc32)ccc1C1=CCCCC1  human oxytocin receptor (Homo sapiens)              52
5  Cc1cc(C(=O)N2Cc3ccc(C(=O)NCCCN(C)C)n3Cc3ccccc32)ccc1C1=CCCCC1  human oxytocin receptor (Homo sapiens)              57
6  Cc1cc(C(=O)N2Cc3ccc(C(=O)N4CCC[C@H]4CN4CCCC4)n3Cc3ccccc32)ccc1C1=CCCCC1  human oxytocin receptor (Homo sapiens)             101
7  C=CCN1CCN(C(=O)c2ccc3n2Cc2ccccc2N(C(=O)c2ccc(C4=CCCCC4)c(C)c2)C3)CC1  human oxytocin receptor (Homo sapiens)              68

---

V1a % inhibition @ 100 nM values for the compounds below.
Target: human vasopressin V1a receptor subtype (Homo sapiens, UniProt P37288)
Construct: host or cells: CHO cells, stably transfected (pZeoSV vector for the Thibonnier line)
Sequence (P37288 whole entry): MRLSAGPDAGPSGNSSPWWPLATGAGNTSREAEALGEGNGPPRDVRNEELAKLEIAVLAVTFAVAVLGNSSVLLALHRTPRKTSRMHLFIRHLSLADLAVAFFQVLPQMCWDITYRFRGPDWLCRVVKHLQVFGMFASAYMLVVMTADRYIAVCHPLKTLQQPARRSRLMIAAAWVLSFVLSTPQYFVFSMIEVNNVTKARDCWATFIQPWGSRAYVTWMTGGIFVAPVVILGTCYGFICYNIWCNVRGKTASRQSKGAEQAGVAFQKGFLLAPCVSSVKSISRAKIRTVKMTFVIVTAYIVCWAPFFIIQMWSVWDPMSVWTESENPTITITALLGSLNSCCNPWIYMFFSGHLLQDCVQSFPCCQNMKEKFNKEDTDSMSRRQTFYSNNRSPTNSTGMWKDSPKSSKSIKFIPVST
Test: Vasopressin binding in CHO cell membranes expressing human vasopressin V1a subtype receptors ([3H]Manning ligand radioligand binding)
Conditions: 100 nM
REPORTED_PROPERTY: V1a % inhibition @ 100 nM (%)

>>> df
                                   compound  value_measured
0  Cc1cc(C(=O)N2Cc3ccc(C(=O)N(C)CCN(C)C)n3Cc3ccccc32)ccc1C1=CCCCC1              71
1  Cc1cc(C(=O)N2Cc3ccc(C(=O)NCCCn4ccnc4)n3Cc3ccccc32)ccc1C1=CCCCC1               7
2  Cc1cc(C(=O)N2Cc3ccc(C(=O)NCCC4CCCN4C)n3Cc3ccccc32)ccc1C1=CCCCC1 (stereo not shown)              28
3  Cc1cc(C(=O)N2Cc3ccc(C(=O)N4CCN(CCN5CCOCC5)CC4)n3Cc3ccccc32)ccc1C1=CCCCC1              27
4  Cc1cc(C(=O)N2Cc3ccc(C(=O)N4CCN(C(C)C)CC4)n3Cc3ccccc32)ccc1C1=CCCCC1              24
5  Cc1cc(C(=O)N2Cc3ccc(C(=O)N4CCCN(C)CC4)n3Cc3ccccc32)ccc1C1=CCCCC1              34
6  C=CCN1CCN(C(=O)c2ccc3n2Cc2ccccc2N(C(=O)c2ccc(C4=CCCCC4)c(C)c2)C3)CC1              12
